# Lookup of reported Vd keyed by entry
Assay: Volume of distribution at steady state in Beagle dog at 2 mg/kg, iv administered as single dose by LC-MS/MS analysis
Format: ADME, organism-based, Canis lupus familiaris
Settings: in vivo, read-out: Vdss
Your answer should be a plain number; it is taken to be in L/kg.

CCOC(=O)C1=C(CN2CCO[C@H](CCC(=O)O)C2)NC(c2nccs2)=N[C@H]1c1ccc(F)cc1Br = 0.76

Prompt line: Annotate the molecule CCOC(=O)C1=C(CN2CCOCC2)NC(c2nccs2)=NC1c1ccc(F)cc1Br (configuration not stated) with its measured Vd.
Response line: 15.8

----------
Assay: Drug uptake in Balb/c mouse liver at 12.5 mg/kg, po bid after 24 hrs by LC-MS/MS analysis
Assay type: ADME, organism-based
Conditions: read-out: Drug uptake
Recorded Endpoint: concentration at 24 h (ng/g)
Your answer should be a plain number; it is taken to be in ng/g.

Prompt line: Annotate the compound "CCOC(=O)C1=C(CN2CCO[C@H](CCC(=O)O)C2)NC(c2nccs2)=N[C@H]1c1ccc(F)cc1Br" with its measured concentration at 24 h.
Response line: 361

----------
# Lookup of reported clearance keyed by entry
Experiment: Clearance in Sprague-Dawley rat at 2 mg/kg, iv administered as single dose by LC-MS/MS analysis
Format: ADME, organism-based
Conditions: in vivo
Your answer should be a plain number; it is taken to be in mL/min/kg.

CCOC(=O)C1=C(CN2CCOCC2)NC(c2nccs2)=NC1c1ccc(F)cc1Br (configuration not stated) = 82.2
CCOC(=O)C1=C(CN2CCO[C@H](C)[C@H]2C(=O)O)NC(c2nccs2)=N[C@H]1c1ccc(F)cc1Br = 20.6
CCOC(=O)C1=C(CN2CC(F)(F)C[C@@H]2CCC(=O)O)NC(c2nccs2)=N[C@H]1c1ccc(F)cc1Br = 34.4
CCOC(=O)C1=C(CN2CCOC[C@H]2C(=O)O)NC(c2nccs2)=N[C@H]1c1ccc(F)cc1Br = 34.9

Prompt line: Annotate the molecule "CCOC(=O)C1=C(CN2CCO[C@H](CCC(=O)O)C2)NC(c2nccs2)=N[C@H]1c1ccc(F)cc1Br" with its measured clearance.
Response line: 8.11

Prompt line: Annotate the molecule "CCOC(=O)C1=C(CN2CCO[C@@H](CCC(=O)O)C2)NC(c2nccs2)=N[C@H]1c1ccc(F)cc1Br" with its measured clearance.
Response line: 77.3

Prompt line: Annotate the molecule "CCOC(=O)C1=C(CN2CCOC[C@@H]2CCC(=O)O)NC(c2nccs2)=N[C@H]1c1ccc(F)cc1Br" with its measured clearance.
Response line: 78.7

----------
Experiment: Intrinsic clearance in dog liver microsomes at 1 uM preincubated for 10 mins followed by NADPH addition measured up to 60 mins by LC-MS/MS analysis
Format: ADME, Canis lupus familiaris, microsome
Conditions: liver microsomes, read-out: CLH
Recorded Endpoint: CLint scaled at 1 µM (mL/min/kg)
Your answer should be a plain number; it is taken to be in mL/min/kg.

# example entries with known answers
CCOC(=O)C1=C(CN2CCO[C@H](CCC(=O)O)C2)NC(c2nccs2)=N[C@H]1c1ccc(F)cc1Br = 14
CCOC(=O)C1=C(CN2CCOC[C@@H]2CCC(=O)O)NC(c2nccs2)=N[C@H]1c1ccc(F)cc1Br = 46
CCOC(=O)C1=C(CN2CC(F)(F)C[C@@H]2CCC(=O)O)NC(c2nccs2)=N[C@H]1c1ccc(F)cc1Br = 55
CCOC(=O)C1=C(CN2CCOC[C@H]2C(=O)O)NC(c2nccs2)=N[C@H]1c1ccc(F)cc1Br = 29

Shifting focus to the compound that follows.
Prompt line: Annotate the compound "CCOC(=O)C1=C(CN2CCO[C@@H](CCC(=O)O)C2)NC(c2nccs2)=N[C@H]1c1ccc(F)cc1Br" with its measured CLint scaled at 1 µM.
Response line: 11

Where do these numbers come from? They come from ChEMBL document CHEMBL4024802.
